# Protocol summary: viability loss of mouse 3T3 cells – cell-based, cherry-pick, single point, set 2, cytotoxicity control, confirmation (AID 651744);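 further: 0% = median of neutral control wells and 100% = median of positive control wells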
# Study conditions: NIH/3T3 viability, CellTiter-Glo ATP luminescence, 90 h; at 24.9 µM; stronger effect = higher value
The whole screen tested about 5,600 compounds, of which about 3,100 (55%) were called active. About 3% were inconclusive and are not listed. The set was probably picked from earlier hits. Only a sample is shown.
Cut-off 40% on inhibition: below means 1, at or above means -1.

These recorded examples may help you get a feel for the data.
Sample smiles	Assigned class
COc1cccc(S(=O)(=O)N2CCCCN3[C@H](CO)[C@H](c4ccc(-c5ccncc5)cc4)[C@H]3C2)c1	1
C[C@@H]1CCCCO[C@@H](CN(C)CC2CC2)[C@H](C)CN([C@H](C)CO)C(=O)c2cc(NC(=O)C3CCCCC3)ccc2O1	1
C[C@H]1CN([C@@H](C)CO)C(=O)c2cc(C#CC3CCCCC3)cnc2O[C@H]1CN(C)S(=O)(=O)c1ccccc1	-1
C[C@H]1CN([C@@H](C)CO)S(=O)(=O)c2ccc(C#Cc3cccc(F)c3)cc2O[C@@H]1CN(C)S(=O)(=O)c1cn(C)cn1	-1
C[C@H](CO)N1C[C@H](C)[C@@H](CN(C)S(=O)(=O)c2cccc(F)c2)OCc2ccccc2-c2c(n(C)c3ccccc23)C1=O	1

Criterion: inhibition strictly below 40%. Is it met by "COc1cccc(S(=O)(=O)N2CCCCN3[C@H](CO)[C@H](c4ccc(C#CC5CC5)cc4)[C@H]3C2)c1" ?
-1

Criterion: inhibition strictly below 40%. Is it met by "C[C@@H]1CN([C@H](C)CO)C(=O)c2cc(NS(C)(=O)=O)ccc2O[C@@H](C)CCCCO[C@H]1CN(C)S(=O)(=O)c1cn(C)cn1" ?
1

Criterion: inhibition strictly below 40%. Is it met by "CC(C)CC#Cc1ccc2c(c1)O[C@H](CN(C)C(=O)C1CC1)[C@@H](C)CN([C@@H](C)CO)S2(=O)=O" ?
1

Criterion: inhibition strictly below 40%. Is it met by "C[C@H](CO)N1C[C@H](C)[C@@H](CN(C)C(=O)C2CCCCC2)Oc2cc(-c3ccccc3)ccc2S1(=O)=O" ?
1

Criterion: inhibition strictly below 40%. Is it met by "C[C@@H]1CN([C@H](C)CO)C(=O)c2cc(/C=C/c3ccccc3)cnc2O[C@@H]1CN(C)Cc1ccncc1" ?
1
